- run description: In vivo distribution necropsy after i.v. injection
- Parameters: species or system rats
- settings: rat, sigmoidal colon, iv, 10 uCi, sigmoidal colon, 30 min post-i.v. injection of 10 μCi; 95% confidence intervals (Table 4); read-out: % DOSE/GRAM, Sigmoidal Colon
experimental endpoint: tissue uptake at 0.5 h (%ID/g)

molecule: CN1C(=O)[C@@H](NC(=O)c2ccc([123I])cc2)N=C(c2ccccc2)c2ccccc21
experimental endpoint: tissue uptake at 0.5 h
unit abbreviation: %ID/g
recorded measurement: 0.5

====

- run description: In vivo distribution necropsy after i.v. injection
- Design: species or system rats
- settings: rat, pancreas, iv, 10 uCi, pancreas, 60 min, i.v. injection; error range 95% confidence intervals (Table 2); read-out: % DOSE/GRAM in rat pancreas
experimental endpoint: tissue uptake at 1 h (%ID/g)

molecule: CN1C(=O)[C@@H](NC(=O)c2ccc([123I])cc2)N=C(c2ccccc2)c2ccccc21
experimental endpoint: tissue uptake at 1 h
unit abbreviation: %ID/g
recorded measurement: 1.14

====

- run description: In vivo distribution necropsy after i.v. injection
- Design: species or system rats
- settings: rat, pyloric sphincter, iv, 10 uCi, P. Sphincter (pyloric), 30 min post-i.v. injection of 10 μCi; 95% confidence intervals (Table 4); read-out: % DOSE/GRAM, P. Sphincter
- Protocol: Animals were euthanized at various times (15 min to 2 hr), and organs of interest removed for assay. Biopsy samples were counted in an autogamma counter (50% counting efficiency) for ^123 I labeled radioligand. […] Liquid scintillation cocktail was added and the samples were dark adapted for 16 hours, then counted in a liquid scintillation counter with automatic quench correction. Results were the average of at least five animals and were expressed as % dose/g (wet weight).

molecule: CN1C(=O)[C@@H](NC(=O)c2ccc([123I])cc2)N=C(c2ccccc2)c2ccccc21
tissue uptake at 0.5 h: 1.25 %ID/g

====

- run description: In vivo distribution after coinjection of unlabeled carboxamide (receptor-mediated binding)
- Set-up: species or system rats
- settings: rat, liver, iv, 0.4 mg/kg, liver, 30 min post-i.v. coinjection of 10 μCi with 0.4 mg/kg (R)-indole-2-carboxamide; 95% confidence intervals (Table 5); read-out: % DOSE/GRAM, Liver, coinjection
experimental endpoint: tissue uptake at 0.5 h (%ID/g)

molecule: CN1C(=O)[C@@H](NC(=O)c2ccc([123I])cc2)N=C(c2ccccc2)c2ccccc21
recorded measurement: 1.69

====

- run description: In vivo distribution necropsy after i.v. injection
- Parameters: species or system rats
- settings: rat, muscle, iv, 10 uCi, muscle, 30 min post-i.v. injection of 10 μCi; 95% confidence intervals (Table 4); read-out: % DOSE/GRAM, Muscle
- Experimental: Animals were euthanized at various times (15 min to 2 hr), and organs of interest removed for assay. Biopsy samples were counted in an autogamma counter (50% counting efficiency) for ^123 I labeled radioligand. […] Liquid scintillation cocktail was added and the samples were dark adapted for 16 hours, then counted in a liquid scintillation counter with automatic quench correction. Results were the average of at least five animals and were expressed as % dose/g (wet weight).

molecule: CN1C(=O)[C@@H](NC(=O)c2ccc([123I])cc2)N=C(c2ccccc2)c2ccccc21
unit abbreviation: %ID/g
tissue uptake at 0.5 h: 0.319

====

- run description: In vivo distribution after coinjection of unlabeled carboxamide (receptor-mediated binding)
- Set-up: species or system rats
- settings: rat, pancreas, iv, 0.4 mg/kg, pancreas, 60 min, i.v. coinjection with 0.4 mg/kg (R)-indole-2-carboxamide; 95% confidence intervals (Table 3); read-out: % DOSE/GRAM in rat pancreas, coinjection
- Method: Animals were euthanized at various times (15 min to 2 hr), and organs of interest removed for assay. […] […] Liquid scintillation cocktail was added and the samples were dark adapted for 16 hours, then counted in a liquid scintillation counter with automatic quench correction. Results were the average of at least five animals and were expressed as % dose/g (wet weight).

molecule: CN1C(=O)[C@@H](NC(=O)c2ccc([123I])cc2)N=C(c2ccccc2)c2ccccc21
tissue uptake at 1 h: 0.472 %ID/g
